Ref: patent US4927831A

Target: aldose reductase (Bos taurus, UniProt P16116)
Construct: preparation of the enzyme from bovine lens; from tissue; host or cells: bovine lens
Experiment: in vitro aldose reductase inhibition (modified Hayman and Kinoshita; enzyme from bovine lens)
Assay type: biochemical
Conditions: read-out: % Inhibition IN VITRO
Protocol: Only two minor reagent changes were made: (a) The rinsing mixture was an aqueous 5% (w/v) trichloroacetic acid solution and (b) the stock solution was prepared by dissolving 25 mg of dulcitol in 100 ml of an aqueous trichloroacetic acid solution. [N.B.: For each experiment the average value found in the tissue from rats fed the glucose diet was subtracted from the individual values found in the corresponding tissue in galactose-fed rats to obtain the amount of polyol accumulated.] […]
Assign inhibition at 1 µM to each entry below.
Your answer should be a plain number; it is taken to be in %.

[ask] What value of measured inhibition at 1 µM is listed for O=C1CC2(C(=O)N1)C(=O)N(Cc1ccc(Br)cc1F)C(=O)c1cc(F)ccc12 (centres unmarked) ?
[reply] 93

[ask] What do you have for O=C1CC2(C(=O)N1)C(=O)N(Cc1ccc(Br)cc1F)C(=O)c1ccc(F)cc12 (centres unmarked) ?
[reply] 96

[ask] What do you have for CN1C(=O)c2ccc(Cl)cc2C2(CC(=O)NC2=O)C1=O (centres unmarked) ?
[reply] 94

[ask] What do you have for O=C1CC2(C(=O)N1)C(=O)N(Cc1ccc(Br)cc1F)C(=O)c1ccccc12 (centres unmarked) ?
[reply] 94

[ask] What do you have for `O=C1C[C@@]2(C(=O)N1)C(=O)N(Cc1ccc(Br)cc1F)C(=O)c1ccc(F)cc12` ?
[reply] 95
